Lab note: IC50 readings collected with Aromatase (Homo sapiens) for the following molecules.
Sequence (P11511 whole entry): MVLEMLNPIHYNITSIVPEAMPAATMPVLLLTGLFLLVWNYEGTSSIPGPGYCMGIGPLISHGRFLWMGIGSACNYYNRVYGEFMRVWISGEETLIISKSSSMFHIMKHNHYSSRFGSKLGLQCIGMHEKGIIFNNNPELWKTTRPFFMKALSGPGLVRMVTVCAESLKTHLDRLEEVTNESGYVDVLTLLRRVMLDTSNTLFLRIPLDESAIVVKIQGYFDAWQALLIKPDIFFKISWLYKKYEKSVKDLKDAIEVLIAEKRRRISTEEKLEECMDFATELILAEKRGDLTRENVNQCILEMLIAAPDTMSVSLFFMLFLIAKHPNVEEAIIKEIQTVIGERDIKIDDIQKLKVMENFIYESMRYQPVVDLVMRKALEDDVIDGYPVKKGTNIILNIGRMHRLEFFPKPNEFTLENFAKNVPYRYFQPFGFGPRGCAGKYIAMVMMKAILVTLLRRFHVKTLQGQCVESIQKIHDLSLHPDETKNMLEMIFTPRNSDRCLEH
recordedEndpoint: IC50 (nM)

>  <molecule>
CC12CCC3C(CCC4=C(Sc5ccccc5)C(=O)CCC43C)C1CCC2=O (centres undefined)

>  <reading>
190

$$$$
>  <molecule>
CC12CCC3C(C1CCC2=O)[C@H](Sc1ccccc1)CC1=C(Oc2ccccc2)C(=O)CCC13C (some centres undefined)

>  <reading>
1650

$$$$
>  <molecule>
C[C@]12CCC(=O)C=C1C[C@@H](Sc1ccccc1)[C@@H]1[C@@H]2CC[C@]2(C)C(=O)CC[C@@H]12

>  <reading>
650

$$$$
>  <molecule>
CC12CCC3C(CCC4=C(Oc5ccccc5)C(=O)CCC43C)C1CCC2=O (centres undefined)

>  <reading>
530

$$$$
